tested on: non-reducing saccharide-forming enzyme; type: biochemical, Rhizobium sp. M-11; settings: 20% substrate, 2 units per g substrate, 40° C., pH 7.0, 48 hours; HPLC
Entries and their Percentage of newly-formed saccharide (P I to P V) in reaction product
Write the value in % as a bare number.

{"compound": "OC[C@H]1O[C@H](O[C@H]2[C@H](O)[C@@H](O)[C@@H](O[C@H]3[C@H](O)[C@@H](O)C(O)O[C@@H]3CO)O[C@@H]2CO)[C@H](O)[C@@H](O)[C@@H]1O (some centres unmarked) [Maltotriose]", "reading": 35.0}
{"compound": "OC[C@H]1O[C@H](O[C@H]2[C@H](O)[C@@H](O)[C@@H](O[C@H]3[C@H](O)[C@@H](O)[C@@H](O[C@H]4[C@H](O)[C@@H](O)C(O)O[C@@H]4CO)O[C@@H]3CO)O[C@@H]2CO)[C@H](O)[C@@H](O)[C@@H]1O (some centres unmarked) [Maltotetraose]", "reading": 85.6}

**Query** Data request, read-out Percentage of newly-formed saccharide (P I to P V) in reaction product, for OC[C@H]1O[C@H](O[C@H]2[C@H](O)[C@@H](O)[C@@H](O[C@H]3[C@H](O)[C@@H](O)[C@@H](O[C@H]4[C@H](O)[C@@H](O)[C@@H](O[C@H]5[C@H](O)[C@@H](O)[C@@H](O[C@H]6[C@H](O)[C@@H](O)[C@@H](O[C@H]7[C@H](O)[C@@H](O)C(O)O[C@@H]7CO)O[C@@H]6CO)O[C@@H]5CO)O[C@@H]4CO)O[C@@H]3CO)O[C@@H]2CO)[C@H](O)[C@@H](O)[C@@H]1O (some centres unmarked) [Maltoheptaose]
**Result** 93.4

**Query** Again, but for OC[C@H]1O[C@H](O[C@H]2[C@H](O)[C@@H](O)[C@@H](O[C@H]3[C@H](O)[C@@H](O)[C@@H](O[C@H]4[C@H](O)[C@@H](O)[C@@H](O[C@H]5[C@H](O)[C@@H](O)C(O)O[C@@H]5CO)O[C@@H]4CO)O[C@@H]3CO)O[C@@H]2CO)[C@H](O)[C@@H](O)[C@@H]1O (some centres unmarked) [Maltopentaose]
**Result** 92.7

**Query** // repeat for OC[C@H]1O[C@H](O[C@H]2[C@H](O)[C@@H](O)[C@@H](O[C@H]3[C@H](O)[C@@H](O)[C@@H](O[C@H]4[C@H](O)[C@@H](O)[C@@H](O[C@H]5[C@H](O)[C@@H](O)[C@@H](O[C@H]6[C@H](O)[C@@H](O)C(O)O[C@@H]6CO)O[C@@H]5CO)O[C@@H]4CO)O[C@@H]3CO)O[C@@H]2CO)[C@H](O)[C@@H](O)[C@@H]1O (some centres unmarked) [Maltohexaose] and report
**Result** 93.5

---

target: β-amylase (Glycine max, UniProt P10538); assay: Hydrolysis by β-amylase; assay type: biochemical; conditions: similarly as with glucoamylase
Sequence (P10538 whole entry, species assumed): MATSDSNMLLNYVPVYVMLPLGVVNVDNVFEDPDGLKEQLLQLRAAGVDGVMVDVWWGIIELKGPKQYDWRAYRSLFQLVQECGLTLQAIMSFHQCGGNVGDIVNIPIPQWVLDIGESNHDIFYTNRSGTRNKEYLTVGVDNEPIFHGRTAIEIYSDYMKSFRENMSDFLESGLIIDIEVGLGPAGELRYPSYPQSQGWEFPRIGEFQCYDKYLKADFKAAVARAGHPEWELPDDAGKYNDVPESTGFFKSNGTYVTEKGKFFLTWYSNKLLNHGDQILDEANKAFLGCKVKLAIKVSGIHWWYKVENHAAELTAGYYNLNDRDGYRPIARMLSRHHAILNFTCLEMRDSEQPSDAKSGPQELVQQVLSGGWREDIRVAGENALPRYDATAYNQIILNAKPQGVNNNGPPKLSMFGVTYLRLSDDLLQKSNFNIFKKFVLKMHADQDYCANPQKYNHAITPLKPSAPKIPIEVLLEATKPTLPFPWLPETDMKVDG

{"molecular_string": "OC[C@H]1O[C@H](O[C@H]2O[C@H](CO)[C@@H](O[C@H]3O[C@H](CO)[C@@H](O[C@H]4O[C@H](CO)[C@@H](O)[C@H](O)[C@H]4O)[C@H](O)[C@H]3O)[C@H](O)[C@H]2O)[C@H](O)[C@@H](O)[C@@H]1O", "Hydrolysis by β-amylase": "not hydrolyzed"}
{"molecular_string": "OC[C@H]1O[C@H](O[C@H]2O[C@H](CO)[C@@H](O[C@H]3O[C@H](CO)[C@@H](O)[C@H](O)[C@H]3O)[C@H](O)[C@H]2O)[C@H](O)[C@@H](O)[C@@H]1O", "Hydrolysis by β-amylase": "not hydrolyzed"}

---

Recorded Saccharide composition of hydrolysate with α-glucosidase: Trehalose by entry
biological target: α-glucosidase specimen derived from rice (Oryza sativa subsp. japonica); construct: purchased Sigma Chemical Company, St. Louis, USA; host or cells: rice; assay: Hydrolysis by α-glucosidase; type: biochemical; conditions: 50 mM acetate buffer pH 4.0, 37° C., 18 hours
Sequence (Q653V7 34-885): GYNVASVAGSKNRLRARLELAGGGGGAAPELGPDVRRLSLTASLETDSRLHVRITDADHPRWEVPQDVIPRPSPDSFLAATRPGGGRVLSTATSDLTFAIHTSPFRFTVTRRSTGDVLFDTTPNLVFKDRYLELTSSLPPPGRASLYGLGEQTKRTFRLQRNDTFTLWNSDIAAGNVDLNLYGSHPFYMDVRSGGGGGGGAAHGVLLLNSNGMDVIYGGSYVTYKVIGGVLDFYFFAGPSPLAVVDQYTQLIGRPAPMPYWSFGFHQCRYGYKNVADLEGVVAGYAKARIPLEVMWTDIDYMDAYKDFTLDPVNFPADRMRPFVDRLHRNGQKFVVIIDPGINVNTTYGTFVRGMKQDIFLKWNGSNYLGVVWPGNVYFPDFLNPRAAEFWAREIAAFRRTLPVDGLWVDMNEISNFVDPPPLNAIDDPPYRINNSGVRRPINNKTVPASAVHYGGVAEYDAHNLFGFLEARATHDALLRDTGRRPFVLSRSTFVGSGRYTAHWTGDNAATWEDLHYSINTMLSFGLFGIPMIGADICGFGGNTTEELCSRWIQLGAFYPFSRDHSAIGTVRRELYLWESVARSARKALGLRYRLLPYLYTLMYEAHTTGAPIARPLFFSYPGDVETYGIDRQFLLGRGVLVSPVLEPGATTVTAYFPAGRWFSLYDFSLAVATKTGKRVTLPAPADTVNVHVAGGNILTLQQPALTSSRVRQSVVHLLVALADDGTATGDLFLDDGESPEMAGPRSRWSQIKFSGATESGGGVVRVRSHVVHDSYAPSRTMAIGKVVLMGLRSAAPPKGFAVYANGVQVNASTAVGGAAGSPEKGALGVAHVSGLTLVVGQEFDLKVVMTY

Illustrative cases are given below, each with its answer.
{"molecular_string": "OC[C@H]1O[C@H](O[C@H]2O[C@H](CO)[C@@H](O[C@H]3O[C@H](CO)[C@@H](O[C@H]4O[C@H](CO)[C@@H](O[C@H]5O[C@H](CO)[C@@H](O)[C@H](O)[C@H]5O)[C@H](O)[C@H]4O)[C@H](O)[C@H]3O)[C@H](O)[C@H]2O)[C@H](O)[C@@H](O)[C@@H]1O", "target_entity": "α-glucosidase specimen derived from rice (Oryza sativa subsp. japonica)", "reading": "38.1%"}
{"molecular_string": "OC[C@H]1O[C@H](O[C@H]2O[C@H](CO)[C@@H](O[C@H]3O[C@H](CO)[C@@H](O[C@H]4O[C@H](CO)[C@@H](O[C@H]5O[C@H](CO)[C@@H](O[C@H]6O[C@H](CO)[C@@H](O[C@H]7O[C@H](CO)[C@@H](O)[C@H](O)[C@H]7O)[C@H](O)[C@H]6O)[C@H](O)[C@H]5O)[C@H](O)[C@H]4O)[C@H](O)[C@H]3O)[C@H](O)[C@H]2O)[C@H](O)[C@@H](O)[C@@H]1O", "target_entity": "α-glucosidase specimen derived from rice (Oryza sativa subsp. japonica)", "reading": "28.3%"}
{"molecular_string": "OC[C@H]1O[C@H](O[C@H]2O[C@H](CO)[C@@H](O[C@H]3O[C@H](CO)[C@@H](O[C@H]4O[C@H](CO)[C@@H](O[C@H]5O[C@H](CO)[C@@H](O[C@H]6O[C@H](CO)[C@@H](O)[C@H](O)[C@H]6O)[C@H](O)[C@H]5O)[C@H](O)[C@H]4O)[C@H](O)[C@H]3O)[C@H](O)[C@H]2O)[C@H](O)[C@@H](O)[C@@H]1O", "target_entity": "α-glucosidase specimen derived from rice (Oryza sativa subsp. japonica)", "reading": "30.2%"}
{"molecular_string": "OC[C@H]1O[C@H](O[C@H]2O[C@H](CO)[C@@H](O[C@H]3O[C@H](CO)[C@@H](O)[C@H](O)[C@H]3O)[C@H](O)[C@H]2O)[C@H](O)[C@@H](O)[C@@H]1O", "target_entity": "α-glucosidase specimen derived from rice (Oryza sativa subsp. japonica)", "reading": "63.0%"}

Shift focus to the following entry.
**Query** Lab request: please report Saccharide composition of hydrolysate with α-glucosidase: Trehalose under test system α-glucosidase specimen derived from rice (Oryza sativa subsp. japonica) for OC[C@H]1O[C@H](O[C@H]2O[C@H](CO)[C@@H](O[C@H]3O[C@H](CO)[C@@H](O[C@H]4O[C@H](CO)[C@@H](O)[C@H](O)[C@H]4O)[C@H](O)[C@H]3O)[C@H](O)[C@H]2O)[C@H](O)[C@@H](O)[C@@H]1O
**Result** 47.6%

---

Some compounds, each annotated with its measured Saccharide composition of hydrolysate: P II.
Target: α-amylase specimen derived from pig pancreas (Sus scrofa, UniProt P00690)
Construct: purchased Sigma Chemical Company, St. Louis, USA; host or cells: pig pancreas
Sequence (P00690 16-511): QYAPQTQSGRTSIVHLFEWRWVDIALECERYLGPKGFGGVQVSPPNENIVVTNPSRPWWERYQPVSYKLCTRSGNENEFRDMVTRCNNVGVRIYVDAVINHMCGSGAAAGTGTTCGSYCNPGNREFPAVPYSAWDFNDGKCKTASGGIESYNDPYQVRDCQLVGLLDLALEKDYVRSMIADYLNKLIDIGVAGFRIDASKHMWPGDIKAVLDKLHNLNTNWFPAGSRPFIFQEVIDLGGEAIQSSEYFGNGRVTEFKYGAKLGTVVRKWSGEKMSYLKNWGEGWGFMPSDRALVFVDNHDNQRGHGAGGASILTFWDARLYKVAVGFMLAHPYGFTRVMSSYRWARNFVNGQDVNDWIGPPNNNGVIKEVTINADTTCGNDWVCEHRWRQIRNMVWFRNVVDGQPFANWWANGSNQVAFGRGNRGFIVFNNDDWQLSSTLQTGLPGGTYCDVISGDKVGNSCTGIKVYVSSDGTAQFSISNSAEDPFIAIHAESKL
Experiment: Hydrolysis by α-amylase
Format: biochemical
Design: unit not given here
Details: α-amylase, 10 mg/ml, pH 6.9, 37° C., 18 hours; HPLC
Experimental: The enzymatic reaction with the α-amylase was as follows: Dissolving 10 mg of a substrate in one ml of 50 mM phosphate buffer (pH 6.9), mixing the resultant solution with one unit of the α-amylase, and incubating the resultant mixture at 37° C. for 18 hours. The enzymatic reaction with the α-glucosidase was conducted under the same conditions as in the case of α-amylase except that 50 mM acetate buffer (pH 4.0) was used as a buffer. […]
Give the figure only, with no unit attached.

Some compounds with recorded Saccharide composition of hydrolysate: P II:
{"molecular_string": "OC[C@H]1O[C@H](O[C@H]2O[C@H](CO)[C@@H](O[C@H]3O[C@H](CO)[C@@H](O[C@H]4O[C@H](CO)[C@@H](O)[C@H](O)[C@H]4O)[C@H](O)[C@H]3O)[C@H](O)[C@H]2O)[C@H](O)[C@@H](O)[C@@H]1O", "reading": 98.8}
{"molecular_string": "OC[C@H]1O[C@H](O[C@H]2O[C@H](CO)[C@@H](O[C@H]3O[C@H](CO)[C@@H](O[C@H]4O[C@H](CO)[C@@H](O[C@H]5O[C@H](CO)[C@@H](O[C@H]6O[C@H](CO)[C@@H](O[C@H]7O[C@H](CO)[C@@H](O)[C@H](O)[C@H]7O)[C@H](O)[C@H]6O)[C@H](O)[C@H]5O)[C@H](O)[C@H]4O)[C@H](O)[C@H]3O)[C@H](O)[C@H]2O)[C@H](O)[C@@H](O)[C@@H]1O", "reading": 44.9}
{"molecular_string": "OC[C@H]1O[C@H](O[C@H]2O[C@H](CO)[C@@H](O[C@H]3O[C@H](CO)[C@@H](O[C@H]4O[C@H](CO)[C@@H](O[C@H]5O[C@H](CO)[C@@H](O)[C@H](O)[C@H]5O)[C@H](O)[C@H]4O)[C@H](O)[C@H]3O)[C@H](O)[C@H]2O)[C@H](O)[C@@H](O)[C@@H]1O", "reading": 4.8}

**Query** For OC[C@H]1O[C@H](O[C@H]2O[C@H](CO)[C@@H](O[C@H]3O[C@H](CO)[C@@H](O[C@H]4O[C@H](CO)[C@@H](O[C@H]5O[C@H](CO)[C@@H](O[C@H]6O[C@H](CO)[C@@H](O)[C@H](O)[C@H]6O)[C@H](O)[C@H]5O)[C@H](O)[C@H]4O)[C@H](O)[C@H]3O)[C@H](O)[C@H]2O)[C@H](O)[C@@H](O)[C@@H]1O , what is its reported Saccharide composition of hydrolysate: P II?
**Result** 3.3
